Reference for the values: patent US20060193786A1

test description: Stability testing of more highly concentrated nasal spray solutions
Assay type: physicochemical
stated conditions: active substance concentration 20%; 6-month value; 25° C.; as free base
property label: content of active substance (A)

{"molecular string": "NCCCC[C@H](NC(=O)[C@@H](Cc1cc(Br)c(O)c(Br)c1)NC(=O)N1CCC(N2Cc3ccccc3NC2=O)CC1)C(=O)N1CCN(c2ccncc2)CC1", "result": "202 mg/mL"}
